TARGET_UNDER_TEST: BCRP (Homo sapiens (Human))
Sequence (Q9UNQ0 whole entry): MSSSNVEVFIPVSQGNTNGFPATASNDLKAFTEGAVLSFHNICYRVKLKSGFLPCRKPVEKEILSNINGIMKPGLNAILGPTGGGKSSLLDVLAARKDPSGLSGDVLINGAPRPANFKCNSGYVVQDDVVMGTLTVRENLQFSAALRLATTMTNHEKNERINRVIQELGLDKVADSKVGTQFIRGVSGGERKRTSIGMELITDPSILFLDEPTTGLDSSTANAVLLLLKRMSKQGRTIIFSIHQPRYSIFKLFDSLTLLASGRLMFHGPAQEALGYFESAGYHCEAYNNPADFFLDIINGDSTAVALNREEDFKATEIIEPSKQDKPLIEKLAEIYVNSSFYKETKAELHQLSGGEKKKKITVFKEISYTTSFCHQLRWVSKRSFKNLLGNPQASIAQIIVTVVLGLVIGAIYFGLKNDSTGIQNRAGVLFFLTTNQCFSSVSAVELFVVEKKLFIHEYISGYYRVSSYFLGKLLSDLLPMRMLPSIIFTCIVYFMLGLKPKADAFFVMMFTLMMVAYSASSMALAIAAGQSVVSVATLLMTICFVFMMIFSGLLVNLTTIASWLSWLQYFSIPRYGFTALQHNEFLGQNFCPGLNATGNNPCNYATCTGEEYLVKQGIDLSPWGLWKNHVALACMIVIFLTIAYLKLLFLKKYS
ASSAY_SUMMARY: BCRP MDCKII efflux assay (Assay 7)
Format: in vitro ADME
EXPERIMENTAL_SETUP: dog; efflux ratio Papp(B-A)/Papp(A-B), BCRP MDCKII cells; read-out: Assay 7 Pe Ratio
MEASURED_PROPERTY: efflux ratio at 2 h, 1 µM

COMPOUND	TARGET_UNDER_TEST	MEASURED_PROPERTY	OBSERVED_RESULT
C=CC(=O)N1C[C@H]2C[C@@H]1[C@H](c1ccc3ncnc(Nc4ccc(Oc5ccc6c(c5)ncn6C)c(C)c4F)c3n1)C2 (racemic)	BCRP (Homo sapiens (Human))	efflux ratio at 2 h, 1 µM	2.8

[I] C=CC(=O)N1CC(c2ccc3ncnc(Nc4ccc(Oc5ccn6ncnc6c5)c(C)c4F)c3n2)C1
[II] C=CC(=O)N1C[C@H](c2ccc3ncnc(Nc4ccc(Oc5ccc6c(c5)ncn6C)c(C)c4F)c3n2)C[C@H]1C
Kindly identify which of I and II has the larger recorded efflux ratio at 2 h, 1 µM value. Your choice should be expressed through its label.
I
